system: OVCAR-3 ovarian; experiment: NCI tumour cell line growth inhibition, 48 h
# TGI per record follows
parameter.measured: TGI

compound	target.desc	parameter.measured	observed.measurement
CO[C@H](C(=O)[C@@H](O)[C@@H](C)O)[C@@H]1Cc2cc3cc(O[C@H]4C[C@@H](O[C@H]5C[C@@H](O)[C@H](O)C(C)O5)[C@H](O)C(C)(O)O4)cc(O)c3c(O)c2C(=O)[C@H]1O[C@H]1C[C@@H](O[C@H]2C[C@@H](O[C@H]3C[C@@H](OC)[C@H](O)C(C)O3)[C@@H](O)C(C)O2)[C@H](O)C(C)O1 (stereo partly drawn)	OVCAR-3 ovarian	TGI	> 16.8 µM
NC(CSS(=O)(=O)c1ccccc1)C(=O)O (stereo not drawn)	OVCAR-3 ovarian	TGI	> 10 µM
Cn1c(=O)cc(NNc2ccccc2)[nH]c1=O	OVCAR-3 ovarian	TGI	30.4 µM
